B1: tRNA (parent)
chain: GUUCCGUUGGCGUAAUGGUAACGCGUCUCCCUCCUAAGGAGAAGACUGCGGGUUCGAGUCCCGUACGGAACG

- Variants of: B1
- protocolSummary: yeast fitness relative to wild type (ratio to wild type); higher = fitter; tRNA-Arg(CCU), competitive growth, 37 C, YPD
Fewer inactive variants are shown than the library holds.
Each entry gets 0.0 if its yeast fitness stays under 0.7, and 1.0 if its yeast fitness is 0.7 or above.

Exercise: Please check the record GUUCCGUUGCCGUAAUGGUAACGCGCCUCCCUCCUAAGGAGAAGGCUGCGGGUUCGAGUCCCGUCCGGAACG [G10C U26C A45G A65C] and state if its yeast fitness is at or above 0.7.
Solution: 0.0

Exercise: And for GUUCCGUUGGCCUAAUGGUAACGCAUCUCCCUCCUAAGGAGAAGACUGCGGGUUCGAGUCCCGUACGGAACG [G12C G25A] ?
Solution: 1.0

Exercise: And for GUUCCGUUGGCGUAAUGGUAACGGGUCUCCCUCCUAAGGAGAAGACUGCGGGUUCGACUCCCGUACGAAACG [C24G G58C G68A] ?
Solution: 0.0

Exercise: And for GUUGAGUUGGCGUAAUGGAAACGGGUCUGCCUCCUAAGGAGAAGACUGCGGGUUCGAGUCCCGUAUGGAACG [C4G C5A U19A C24G C29G C66U] ?
Solution: 0.0

Exercise: And for GUUCCGUCGGCGUAAUGGUAAGGCGUCUCCCUCCUAAGGAGAAGACUGCGGGUUCGAGUACCGUACGGAACG [U8C C22G C60A] ?
Solution: 0.0

Exercise: And for GUUCCGUUGGCGUAAUGGUAACGCGUCUCCCUCCUAAGGAGAAGGCUGCGGGGUCGAGUCCCGUAUGGUACG [A45G U53G C66U A69U] ?
Solution: 0.0

Exercise: And for GUUCCGUUAGCGUAAUGGUAACGGGUCUCCCUCCUAAGCAGAAGACUGCGGGUUCCAGUCCCGUACGGAACG [G9A C24G G39C G56C] ?
Solution: 0.0

Exercise: And for GUUCCGUUGGGGUAAUGGUAACGCGUCUCCCUCCUCAGGAGAAGACCGUGGGUUCGAGUCCCGUACGGCACG [C11G A36C U47C C49U A69C] ?
Solution: 0.0

Exercise: And for GUUCCGUUGGGGCAAUGGUAACGCGUCUCCCUCCUAAGGAGAAGACUGCGGGUUCGACUCCCGUACGGUACG [C11G U13C G58C A69U] ?
Solution: 0.0

Exercise: And for GUUCUGUUGGCGUAAUGGUAACGCGUCUCCCUCCUAAGGAGAACACUGCGGGUUCGAGUCCCGUACGGUACG [C5U G44C A69U] ?
Solution: 1.0
